Every entry's value here was drawn from the domain aggregation screens of Martell et al. (2025).

# Method Notes: soluble fraction after stress (log2 fold change); higher = more stays soluble; pooled small domains, quantitative proteomics
# Settings: stress: pH 4
Readout Kind: soluble fraction (log2)
Hey, just send me the number, nothing else.

1. HMEKPAQDVLASHREWMGEMIKAEHMTAKQVWRLLRERADIGVSYPTVKRYLRAHFQFGGPS: 0.00611
2. HMGPLSDRSVADWLLRLGLADTANNRLLLQVMHAAGLPLERTAVRAMRETAAGRPEGTDAREWLQAAAAAQ: -0.326
3. HMGDIFTAEDAKERIDYSGVDGIMLARGIFGNPWLIRDIREYLEYGKILHPVTQLDRVNMAIEHTRKT: -0.25
4. HMSGTMYATAEVNVRSTYSSDGTIYGTLSKGTAVEITGTTDNGWVRVKYNGTTAYVYADYLSWKAP: 0.144
5. HMGQLVYPAGVYDVNKSYITDSNSAPYVLDKTDNNYYVLNTQMTWKGTEQDNKTPSQSYEESGGSVWLLFD: -0.59

Sure, the documented soluble fraction (log2) for `HMSLTEDELFHALTIYANREGINIGATELKYLLTHYARNLGKLIELINQVSQAATMQKKPITIPLIKHS` is -0.251

soluble fraction (log2) recorded for this sequence, `HMVVLPGEVLRINVIQEGKEHGQGVGYMDDGTMVVIENGREFIGEYMEVNVTKVLQTAAGRMIFGRVD` , is -0.917

----------
# Method Notes: soluble fraction after stress (log2 fold change); higher = more stays soluble; pooled small domains, quantitative proteomics
# Settings: stress: pH 4
Catalogue of soluble fraction (log2) readings, one per entry.
Field format: numeric only.

# sequence `HMPPAPGHDLTEREREVLRLLVEGLSNQEISDRLVISQSTVKNHVSSVLSKLDAANRAEAVALALKNQL` ; its soluble fraction (log2) = -0.547

Notebook: `HMKITININIETLSHHIKQSGVPLGRLQESVPDYNEIVTGNKSPTYQQLEKISKLIRVPLGLLVIESPL` , soluble fraction (log2) read as -0.451

Entry under test: `HMGLTYEQILTDVQRFVTQNHADTLSNEGNPEEARKLLKDYILQYVQNRSYHVDGQTTEELVDSLYED` . Its soluble fraction (log2) was -1.13

Looking up `HMGDEHYDTISAFIKSVRGSDPDAALYWLAKMILAGEDPRFILRRLIVLSGEDIGLADPQGI` , I found its soluble fraction (log2) recorded as -0.346

# sequence `HMESYWVVLRPMAAGTQIGANDLGYRSVALGAAAKNYLAASTNPIGSITRRRLVAGELLQGSSLTDDARA` ; its soluble fraction (log2) = 0.185

# sequence `HMIFSIIPGQIRLTKMEIADGYLVLYGFTPSKEIYNLHLNPALKSIFTSSETSFIPVSGGLKFMSTNKL` ; its soluble fraction (log2) = -0.442

Sure, the documented soluble fraction (log2) for `HMKNLNVIDLSALRTLELKESSDWTLIQKRFKLLVKKYHPDMNAGSKQYEEKLKKITLAYTHLKKLF` is -0.715

Reported soluble fraction (log2) ( `HMVDDELTARRRVNLRRIADELGGAAAVARKTQKSVQQISSMLNGTKSFGSKIARDIEPKLGLPLQSLDKE` ) = 0.203

Value of measured soluble fraction (log2) for the entry `HMVELGMSQNEFIQKFGKPFNKEMAYTYDKHKRETLFYKEDLYRGSWFIVTTAFTFVDSKLVSQEIVREER` : -0.349
